B1: DVL3 (parent)
chain: YNPHPGFPELGYSYGGGSASSQHS

Variants of: B1
Protocol Text: protein stability index of a GFP-peptide fusion (GPS, HEK-293T) (PSI 1-6); higher = more stable;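 note: lentivirally expressed fusions sorted by FACS into six bins by GFP to DsRed ratio, PSI derived from sequencing read proportions per bin multiplied by bin number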
Conditions Used: c terminus: a fixed tail appended
Listing of recorded protein stability index by entry.
The answer should be written as a number, with no unit following it.

Worked cases, answers included:
-- ask Need protein stability index, item Q22I
-- reply 2.33

-- ask Need protein stability index, item G17A
-- reply 2.73

-- ask Need protein stability index, item G11C
-- reply 2.3

Continuing:
-- ask Need protein stability index, item Y14T
-- reply 3.24

-- ask Need protein stability index, item G11Y
-- reply 2.66

-- ask Need protein stability index, item H23G
-- reply 2.78

-- ask Need protein stability index, item G11D
-- reply 2.82

-- ask Need protein stability index, item S20I
-- reply 2.08

-- ask Need protein stability index, item N2V
-- reply 1.82

-- ask Need protein stability index, item F7S
-- reply 2.59

-- ask Need protein stability index, item Q22S
-- reply 2.71
